- Tested on: male C57BL mice
- method.description: In vivo stimulation of intestinal growth, 200 nmol/kg (Example 11)
- measurement.context: colon weight relative to body weight; relative to ZP1559
Each item that follows carries a reported Colon-BW, compared to 1559 in %.
A number alone suffices; assume %.

Use these answered entries as a reference point.
substance: H-HGEGSFSDELATILESLAASDFISWLISTKITD-NH2 [ZP2399]
Colon-BW, compared to 1559 in %, %: 103

substance: H-HGEGSFSDELSTILEALAASDFISWLISTKITD-NH2 [ZP2398]
Colon-BW, compared to 1559 in %, %: 97

substance: H-HGEGSFSDELATILEALAASDFISWLISTKITD-NH2 [ZP2268]
Colon-BW, compared to 1559 in %, %: 112.5

substance: H-HGEGSFSSELSTILDALAARDFIAWLIATKITDK-OH [ZP2242]
Colon-BW, compared to 1559 in %, %: 106.6

substance: H-HGEGSFSDELATILEALAAADFISWLIATKITD-NH2 [ZP2418]
Colon-BW, compared to 1559 in %, %: 100

substance: H-HGEGSFSDELATILEALAAADFISWLIATKITDKKKKKK-NH2 [ZP2411]
Colon-BW, compared to 1559 in %, %: 111

**Query** Any idea what its Colon-BW, compared to 1559 in % is? The substance is H-HGEGSFSDELSTILEALAAADFIAWLIATKITD-NH2 [ZP2420]
**Result** 101

**Query** Any idea what its Colon-BW, compared to 1559 in % is? The substance is H-HGEGSFSDELSTILEALAASDFISWLISTKITDKKKKKK-NH2 [ZP2385]
**Result** 95

**Query** Any idea what its Colon-BW, compared to 1559 in % is? The substance is H-HGEGSFSDELFTILEFLAASDFISWLISTKITD-NH2 [ZP2401]
**Result** 88

**Query** Any idea what its Colon-BW, compared to 1559 in % is? The substance is H-HGEGSFSDELSTILESLAASDFISWLISTKITDKKKKKK-NH2 [ZP2380]
**Result** 102
